# Test system: U2OS
# measurement-description: Multiplex assay against U2OS
# Format: toxicity, cell-based
# assay-setup: human, 12 h, 10 µM, compound concentration 10 uM, replicate 2
measurement-kind: Population Mitochondria Different-Phenotype (%)
Provide only the numeric value, understood in %.

# input # returns recorded Population Mitochondria Different-Phenotype (%) (system: U2OS) for `COC(c1ccccc1)(c1ccccc1)[C@H](Oc1nc(C)cc(C)n1)C(=O)O`
# output 0

# input Another: `Cc1cc(O)c(-c2ccc([C@@H](C)CN(C)C)cc2)c2c1[nH]c(=O)c1sccc12`
# output 61

# input Another: `COc1cc(C(=O)N2CC[C@@H](O)[C@@H](N)C2)cc2nc(-c3cc4ccccc4n3CC3CC3)n(C)c12.Cl`
# output 91

# input Another: `CCc1nn2c(C)cc(C)nc2c1Cc1ccc(-c2nnc(C3CCNCC3)o2)cc1`
# output 62

# input Another: `COc1cc(Nc2ncc3c(n2)-c2ccc(Cl)cc2C(c2c(F)cccc2OC)=NC3)ccc1C(=O)O`
# output 1

# input Another: `Cc1sc2c(c1C)C(c1ccc(Cl)cc1)=N[C@H](CC(=O)OC(C)(C)C)c1nnc(C)n1-2`
# output 24

# input Another: `Cc1c(Cc2ccc3ccccc3n2)c2cc(F)ccc2n1CC(=O)O`
# output 3

# input Another: CCC(=O)OCC(=O)[C@@]1(OC(=O)CC)[C@@H](C)C[C@H]2[C@@H]3CCC4=CC(=O)C=C[C@]4(C)[C@@]3(Cl)[C@@H](O)C[C@@]21C [BECLOMETHASONE DIPROPIONATE]
# output 97
